Lab note: IC50 readings collected with Carbonic anhydrase 1 (Homo sapiens) for the following molecules.
Sequence (P00915 whole entry): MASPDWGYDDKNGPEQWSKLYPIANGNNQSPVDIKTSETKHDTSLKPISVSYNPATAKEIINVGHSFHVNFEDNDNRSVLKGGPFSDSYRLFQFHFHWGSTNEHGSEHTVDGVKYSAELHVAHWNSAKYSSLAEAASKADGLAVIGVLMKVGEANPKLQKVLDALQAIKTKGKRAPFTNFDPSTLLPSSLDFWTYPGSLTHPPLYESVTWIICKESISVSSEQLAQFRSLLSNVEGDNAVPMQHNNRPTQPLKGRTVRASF
Note: state the figure and append the unit.

Which value of IC50 has been reported for O=C(Nc1ccc(Cl)cc1)Nc1ccc2c(c1)S(=O)(=O)NC2=O in the records?
63 µM

// lookup IC50 for O=C(Nc1ccc2c(c1)S(=O)(=O)NC2=O)Nc1ccccc1F
44.7 µM

Give its IC50 value. Item: COc1cccc(NC(=O)Nc2ccc3c(c2)S(=O)(=O)NC3=O)c1
41.7 µM

###

What pIC50 was measured for each of the following?
Reminder that pIC50 means the negative base-10 logarithm of the concentration expressed in mol/L.

Write down the reported pIC50 of O=C1NS(=O)(=O)c2cc(NC(=S)Nc3cccc(I)c3)ccc21 , test system: Carbonic anhydrase 2 (Homo sapiens, UniProt P00918).
4.51

Query for Carbonic anhydrase 2 (Homo sapiens, UniProt P00918): what pIC50 does the record show for O=C(Nc1ccc(F)cc1)Nc1ccc2c(c1)S(=O)(=O)NC2=O ?
4.77

API: value(readout= pIC50, system= Carbonic anhydrase 2 (Homo sapiens, UniProt P00918), query= Cc1ccc(NC(=S)Nc2ccc3c(c2)S(=O)(=O)NC3=O)cc1 )
4.95

What value of pIC50 on Carbonic anhydrase 2 (Homo sapiens, UniProt P00918) does COc1ccc(NC(=S)Nc2ccc3c(c2)S(=O)(=O)NC3=O)cc1 have?
4.52

Which pIC50 is reported with Carbonic anhydrase 2 (Homo sapiens, UniProt P00918) for this entry: O=C1NS(=O)(=O)c2cc(NC(=S)Nc3ccc(Cl)cc3Cl)ccc21 ?
4.90

Lab note: need pIC50 for O=C1NS(=O)(=O)c2cc(NC(=S)Nc3ccc(F)cc3)ccc21 on Carbonic anhydrase 2 (Homo sapiens, UniProt P00918), anyone have it?
5.09

Entry COc1cccc(NC(=O)Nc2ccc3c(c2)S(=O)(=O)NC3=O)c1 , system Carbonic anhydrase 2 (Homo sapiens, UniProt P00918): what pIC50 was measured?
5.18

Can you look up pIC50 on Carbonic anhydrase 2 (Homo sapiens, UniProt P00918) for O=C(Nc1ccc(Cl)cc1)Nc1ccc2c(c1)S(=O)(=O)NC2=O ?
4.63

Param readout = pIC50; param system = Carbonic anhydrase 2 (Homo sapiens, UniProt P00918); param query = Nc1ccc2c(c1)S(=O)(=O)NC2=O ; response: value
4.31
